- measurement target: fMet-Leu-Phe receptor (Homo sapiens, UniProt P21462)
- Sequence (P21462 whole entry): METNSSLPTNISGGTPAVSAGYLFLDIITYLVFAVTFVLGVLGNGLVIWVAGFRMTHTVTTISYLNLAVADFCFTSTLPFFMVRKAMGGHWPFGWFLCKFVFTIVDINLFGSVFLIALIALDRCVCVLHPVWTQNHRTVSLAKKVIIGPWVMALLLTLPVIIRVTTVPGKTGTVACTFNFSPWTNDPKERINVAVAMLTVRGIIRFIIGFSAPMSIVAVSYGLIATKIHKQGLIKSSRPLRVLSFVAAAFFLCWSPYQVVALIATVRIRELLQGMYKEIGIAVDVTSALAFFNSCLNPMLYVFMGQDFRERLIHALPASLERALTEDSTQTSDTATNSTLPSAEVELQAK
- method summary: Antagonist activity at formyl peptide receptor in human HL60 cells assessed as inhibition of intracellular calcium mobilization incubated for 5 mins prior to fMLP challenge by Fura-2 method
pKd: −log10 of the molar value.

entry smiles	measurement target	pKd
CC(C)C[C@@H](NC(=O)[C@H](Cc1ccccc1)NC(=O)[C@@H](CC(C)C)NC(=O)[C@H](Cc1c[nH]c2ccccc12)NC(=O)OC(C)(C)C)C(=O)N[C@@H](Cc1ccccc1)C(=O)O	fMet-Leu-Phe receptor (Homo sapiens, UniProt P21462)	6.72
CC(C)C[C@@H](NC(=O)[C@H](Cc1ccccc1)NC(=O)[C@@H](CC(C)C)NC(=O)[C@H](Cc1ccccc1)NC(=O)OC(C)(C)C)C(=O)N[C@@H](Cc1c[nH]c2ccccc12)C(=O)O	fMet-Leu-Phe receptor (Homo sapiens, UniProt P21462)	6.82
CSCC[C@H](NC(=O)[C@@H](CC(C)C)NC(=O)[C@H](Cc1ccccc1)NC(=O)OC(C)(C)C)C(=O)N[C@H](CC(C)C)C(=O)N[C@@H](Cc1ccccc1)C(=O)O	fMet-Leu-Phe receptor (Homo sapiens, UniProt P21462)	6.89
CC(C)C[C@@H](NC(=O)[C@H](Cc1ccccc1)NC(=O)[C@H](C)NC(=O)[C@H](Cc1ccccc1)NC(=O)OC(C)(C)C)C(=O)N[C@@H](Cc1ccccc1)C(=O)O	fMet-Leu-Phe receptor (Homo sapiens, UniProt P21462)	6.59
CC(C)C[C@@H](NC(=O)[C@H](CC1CCCCC1)NC(=O)[C@@H](CC(C)C)NC(=O)[C@H](Cc1ccccc1)NC(=O)OC(C)(C)C)C(=O)N[C@@H](Cc1ccccc1)C(=O)O	fMet-Leu-Phe receptor (Homo sapiens, UniProt P21462)	7.60

----------
- measurement target: fMet-Leu-Phe receptor (Homo sapiens, UniProt P21462)
- method summary: Antagonist activity at formyl peptide receptor in human HL60 cells assessed as inhibition of fMLP-induced calcium mobilization incubated for 5 mins prior to fMLP challenge by Fura-2 method
pIC50: −log10 of the molar value.
endpoint name: pIC50

entry smiles	recorded result
CC(C)C[C@@H](NC(=O)[C@H](Cc1ccccc1)NC(=O)[C@@H](CC(C)C)NC(=O)[C@H](Cc1ccc(C(=O)c2ccccc2)cc1)NC(=O)OC(C)(C)C)C(=O)N[C@@H](Cc1ccccc1)C(=O)O	6.38
CC(C)C[C@@H](NC(=O)[C@H](CC1=CCCCC1)NC(=O)[C@@H](CC(C)C)NC(=O)[C@H](Cc1ccc(C(=O)c2ccccc2)cc1)NC(=O)OC(C)(C)C)C(=O)N[C@@H](Cc1ccccc1)C(=O)O	6.85

----------
- measurement target: fMet-Leu-Phe receptor (Homo sapiens, UniProt P21462)
- method summary: Antagonist activity at formyl peptide receptor in human HL60 cells assessed as inhibition of intracellular calcium mobilization incubated for 5 mins prior to fMLP challenge by Fura-2 method
pKd: −log10 of the molar value.

entry smiles	qualifier operator	pKd
CC(C)C[C@@H](NC(=O)[C@H](Cc1ccccc1)NC(=O)[C@@H](CC(C)C)NC(=O)[C@H](Cc1ccccc1)NC(=O)OC(C)(C)C)C(=O)N[C@@H](C)C(=O)O	=	6.46
CC(C)C[C@H](NC(=O)OC(C)(C)C)C(=O)N[C@H](CC(C)C)C(=O)N[C@@H](Cc1ccccc1)C(=O)N[C@H](CC(C)C)C(=O)N[C@@H](Cc1ccccc1)C(=O)O	=	6.70
CC(C)C[C@@H](NC(=O)[C@H](Cc1ccccc1)NC(=O)[C@@H](CC(C)C)NC(=O)[C@H](Cc1ccccc1)NC(=O)OC(C)(C)C)C(=O)N[C@@H](COC(C)(C)C)C(=O)O	=	6.74
CC(C)C[C@@H](NC(=O)[C@H](CC1=CCCCC1)NC(=O)[C@@H](CC(C)C)NC(=O)[C@H](Cc1ccc(C(=O)c2ccccc2)cc1)NC(=O)OC(C)(C)C)C(=O)N[C@@H](Cc1ccccc1)C(=O)O	=	8.68
CC(C)C[C@@H](NC(=O)[C@H](Cc1ccccc1)NC(=O)[C@@H](CC(C)C)NC(=O)[C@H](Cc1cn(C(=O)OC(C)(C)C)c2ccccc12)NC(=O)OC(C)(C)C)C(=O)N[C@@H](Cc1ccccc1)C(=O)O	=	7.16
CC(C)C[C@@H](NC(=O)[C@H](Cc1ccccc1)NC(=O)[C@@H](CC(C)C)NC(=O)[C@H](CCCCNC(=O)c1ccccc1)NC(=O)OC(C)(C)C)C(=O)N[C@@H](Cc1ccccc1)C(=O)O	=	6.85
CC(C)C[C@@H](NC(=O)[C@H](Cc1ccccc1)NC(=O)OC(C)(C)C)C(=O)N[C@@H](Cc1ccccc1)C(=O)N[C@H](CC(C)C)C(=O)N[C@H](C(=O)O)[C@@H](C)OC(C)(C)C	=	6.89
CC(C)C[C@@H](NC(=O)[C@H](Cc1ccccc1)NC(=O)[C@@H](CC(C)C)NC(=O)[C@H](CC1CCCCC1)NC(=O)OC(C)(C)C)C(=O)N[C@@H](Cc1ccccc1)C(=O)O	=	7.18
CC(C)C[C@@H](NC(=O)[C@H](Cc1ccccc1)NC(=O)OC(C)(C)C)C(=O)N[C@@H](Cc1ccccc1)C(=O)N[C@@H](C)C(=O)N[C@@H](Cc1ccccc1)C(=O)O	=	6.38
CC(C)C[C@@H](NC(=O)[C@H](CCCCNC(=O)OC(C)(C)C)NC(=O)[C@@H](CC(C)C)NC(=O)[C@H](Cc1ccccc1)NC(=O)OC(C)(C)C)C(=O)N[C@@H](Cc1ccccc1)C(=O)O	<	6.00

----------
Here the recorded Kd is given for each entry.
- measurement target: fMet-Leu-Phe receptor (Homo sapiens)
- method summary: Antagonist activity at formyl peptide receptor in human HL60 cells assessed as inhibition of intracellular calcium mobilization incubated for 5 mins prior to fMLP challenge by Fura-2 method

entry smiles	measurement target	Kd
CC(C)C[C@@H](NC(=O)[C@H](Cc1ccccc1)NC(=O)OC(C)(C)C)C(=O)N[C@@H](Cc1ccccc1)C(=O)N[C@H](CC(C)C)C(=O)N[C@H](C(=O)O)C(C)C	fMet-Leu-Phe receptor (Homo sapiens)	0.26 µM
CC(C)C[C@@H](NC(=O)[C@H](Cc1ccccc1)NC(=O)[C@@H](CC(C)C)NC(=O)[C@H](Cc1ccccc1)NC(=O)OC(C)(C)C)C(=O)N[C@@H](Cc1cn(C(=O)OC(C)(C)C)c2ccccc12)C(=O)O	fMet-Leu-Phe receptor (Homo sapiens)	0.12 µM
CC(C)C[C@@H](NC(=O)[C@H](C)NC(=O)[C@@H](CC(C)C)NC(=O)[C@H](Cc1ccccc1)NC(=O)OC(C)(C)C)C(=O)N[C@@H](Cc1ccccc1)C(=O)O	fMet-Leu-Phe receptor (Homo sapiens)	0.28 µM
CC(C)C[C@@H](NC(=O)[C@H](Cc1ccccc1)NC(=O)[C@@H](CC(C)C)NC(=O)[C@H](Cc1cn(C=O)c2ccccc12)NC(=O)OC(C)(C)C)C(=O)N[C@@H](Cc1ccccc1)C(=O)O	fMet-Leu-Phe receptor (Homo sapiens)	0.09 µM

----------
pKd overview
- measurement target: fMet-Leu-Phe receptor (Homo sapiens)
- method summary: Antagonist activity at formyl peptide receptor in human HL60 cells assessed as inhibition of intracellular calcium mobilization incubated for 5 mins prior to fMLP challenge by Fura-2 method
pKd: −log10 of the molar value.

entry smiles	qualifier operator	pKd
CC(C)C[C@@H](NC(=O)[C@H](Cc1ccccc1)NC(=O)[C@@H](CC(C)C)NC(=O)[C@H](COC(C)(C)C)NC(=O)OC(C)(C)C)C(=O)N[C@@H](Cc1ccccc1)C(=O)O	=	7.00
CC(C)C[C@@H](NC(=O)[C@H](Cc1ccccc1)NC(=O)OC(C)(C)C)C(=O)N[C@H](C(=O)N[C@H](CC(C)C)C(=O)N[C@@H](Cc1ccccc1)C(=O)O)[C@@H](C)OC(C)(C)C	=	6.08
CC(C)C[C@@H](NC(=O)[C@H](Cc1ccc(C(=O)c2ccccc2)cc1)NC(=O)[C@@H](CC(C)C)NC(=O)[C@H](Cc1ccccc1)NC(=O)OC(C)(C)C)C(=O)N[C@@H](Cc1ccccc1)C(=O)O	=	6.82
CC(C)C[C@@H](NC(=O)[C@H](Cc1ccccc1)NC(=O)OC(C)(C)C)C(=O)N[C@H](C(=O)N[C@H](CC(C)C)C(=O)N[C@@H](Cc1ccccc1)C(=O)O)C(C)C	<	6.00
CC(C)C[C@@H](NC(=O)[C@H](Cc1ccccc1)NC(=O)[C@@H](CC(C)C)NC(=O)[C@H](Cc1ccccc1)NC(=O)OC(C)(C)C)C(=O)N[C@@H](CC1CCCCC1)C(=O)O	=	7.11
